System: Trypanosoma brucei brucei bloodstream forms
Construct: 427 single marker, bloodstream form
Experiment: microbe, parasite or virus in culture
Design: Resazurin viability of bloodstream form parasites, fluorescence 560/590 nm, dose-response, initial screen n = 1
Conditions: initial screen, n = 1, 0.5% DMSO
Attribute Measured: EC50 (nM)

> print(dat)
                                   compound  attribute.measured  quantitative.result
1  CC(C)(C)OC(=O)N1CCCC1c1ccc(S(=O)(=O)F)cn1 (stereo not shown) [C-1]                EC50                  330
